target: huCTLA4 (Homo sapiens, UniProt P16410); assay: Flow binding to CHO cells stably expressing CTLA4; set-up: huCTLA4 and huPD-L1, full-length mammalian surface expression constructs were generated; expressed in transfected cells; host or cells: CHO cells, lentiviral transduction, sorted to >98% purity; conditions: Table E19; MFI at 33.3 nM relative to WT CD80 ECD-Fc (Abcam)
Sequence (P16410 36-223): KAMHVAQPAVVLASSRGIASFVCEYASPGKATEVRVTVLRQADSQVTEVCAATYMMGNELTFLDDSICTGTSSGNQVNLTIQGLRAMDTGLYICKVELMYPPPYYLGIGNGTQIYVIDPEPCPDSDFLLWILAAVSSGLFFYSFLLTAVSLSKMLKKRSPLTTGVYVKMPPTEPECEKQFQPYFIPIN
For each record, write down the corresponding CTLA4 Fold change to WT CD80.

E35D/D46V/M47V/V68M/L85Q (protein) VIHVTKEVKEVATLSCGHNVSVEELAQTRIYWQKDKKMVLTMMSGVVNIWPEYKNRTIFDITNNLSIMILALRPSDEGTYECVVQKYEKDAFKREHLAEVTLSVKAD    0.9 fold

So, E35D/M47V/N48K/V68M/L85Q (protein) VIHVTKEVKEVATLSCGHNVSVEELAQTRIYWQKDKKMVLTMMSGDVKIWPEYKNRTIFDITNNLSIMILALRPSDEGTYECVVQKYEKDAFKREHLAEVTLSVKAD ? Its CTLA4 Fold change to WT CD80 was 0.6 fold
